Readout name: melting point

### Prompt I am curious: what melting point value has been reported for COC(=O)c1sc(C(=O)OC)c([N+](=O)[O-])c1OC ?
### Response 80 to 82 °C

### Prompt Please report the recorded melting point for CCOC(=O)C1=C(COCCN(C)S(C)(=O)=O)NC(C)=C(C(=O)OC)C1c1ccccc1Cl (stereo not drawn) .
### Response 93 to 95 °C

### Prompt Can you share its melting point? I mean this molecule: O=C(O)Cc1ccc(C(=O)c2ccc(Cl)cc2)[nH]1
### Response 210 °C

* * *

Consider the following compounds; for each one, report its melting point.

### Prompt Given the compound O=S(=O)(Nc1ccc2c(OCc3nc(-c4ccc(F)cc4)no3)cccc2c1)C(F)(F)F , what is its reported melting point?
### Response 131 to 132 °C

### Prompt Fill blank: measured melting point of the compound CNC(=O)OC1c2ccccc2C(=O)N1c1ccc2ccc(Cl)nc2n1 (stereo unspecified) is ____.
### Response 260 °C

### Prompt Find the recorded melting point belonging to Cc1cccc(NC(=O)NCC(=O)N(CC(=O)OC(C)(C)C)c2ccc3c(c2)OCO3)c1 and report it.
### Response 142 °C

### Prompt Any idea what melting point was measured for COC(=O)C12C3C4(C(=O)OC)C1C1(C(=O)OC)C2C3(C(=O)OC)C41Cl (stereo unspecified) ?
### Response 178 to 180 °C

### Prompt melting point for O=C(O)CCc1cc(-c2ccc(Cl)cc2)n(-c2nc3c(Cl)cccc3s2)n1 ?
### Response 232 to 234 °C

### Prompt Quick one: melting point for Cc1cn(C)c(CO)n1 ?
### Response 125 to 126 °C

### Prompt Item under review: CCCS(=O)(=O)c1cc(C(=O)CCC(=O)c2cc(OC)c(OC)c(OC)c2)cc(OC)c1OCc1ccccc1 . Reported melting point?
### Response 148 to 150 °C

### Prompt May I ask what melting point has been recorded for COC(=O)c1ccc(N=C(Nc2ccc(C(=O)OC)cc2)c2ccccc2)cc1 ?
### Response 180 to 182 °C

### Prompt Could you tell me which melting point is on file for CC(C)N=c1[nH]c2ccc(Cl)cc2c2nc(-c3ccco3)nn12 ?
### Response 140 to 141 °C

### Prompt Field request: melting point | item: COc1cccc(CNc2nc(SCc3ccccc3)nc3nc[nH]c23)c1O
### Response 193 to 194 °C

### Prompt Which measured melting point value corresponds to CN1CCN(c2ccc(-c3nc(C(=O)Nc4nccs4)c(-c4ccc(Cl)cc4)[nH]3)cc2)CC1 ?
### Response > 250 °C

* * *

Please provide measured melting point for the entries that follow.

### Prompt Any idea what its melting point is? The compound is NC(=O)CCSC(SCCC(=O)O)c1cccc(SCc2ccc3ccc(Cl)cc3n2)c1 (stereo not given)
### Response 141 to 142 °C

### Prompt Report melting point for CN(C)c1ccc2c(c1)C(C)(C)C1(C=Cc3cc([N+](=O)[O-])ccc3S1)N2C (stereo not given) please.
### Response 166 to 167 °C

### Prompt Name the recorded melting point for N#CC1C=Cc2ccccc2N1C(=O)c1ccccc1 (stereo not given) .
### Response 153 to 154 °C

### Prompt Reported melting point, compound OC(CCC1CCNCC1)c1cc(C2CCCCC2)nc2ccccc12 (stereo not given) : ____
### Response 190 to 191 °C

### Prompt Data request, read-out melting point, for O=C(NO)c1ccc2c(c1)CN(C(=O)c1ccc3[nH]ccc3c1)CC2
### Response 252 °C

### Prompt If you can, please state the reported melting point value of COC(=S)Cc1ccc(C(=O)CN2CCN(c3ccncc3)CC2)cc1 .
### Response 109 to 110 °C

### Prompt Look up melting point for this compound: CC1(C)SC(c2ccncc2)NC1C(=O)O (stereo not given)
### Response 149 to 151 °C

### Prompt Return reported melting point; argument: Cn1c(C(F)(F)F)cc(=O)n(-c2c(O)cc(F)cc2F)c1=O
### Response 195 to 196 °C

### Prompt Which melting point reading was recorded for the compound Nc1[nH]ncc1C(=O)c1cccs1 ?
### Response 114 to 115 °C

### Prompt What measured melting point goes with CCCCCCCCC1C=CC(Oc2ccc(C(=O)O)o2)=C2N=C3CCCCC3=C21 (stereo not given) ?
### Response 130 to 132 °C

### Prompt Bench note: what melting point did CC1COc2c(N3CCC(CN)C3)c(F)cc3c(=O)c(C(=O)O)cn1c23 (stereo not given) show?
### Response 213 to 216 °C

### Prompt Item CCN(C(=O)N1CCN(c2cc(C)cc(C)c2)CC1)c1nc(C)c(C)nc1OC has what recorded melting point?
### Response 68 to 70 °C

### Prompt Entry CN=C(NS(=O)(=O)N1CCOCC1)C1=NN(c2ccc(Cl)cc2Cl)C(c2ccccc2)C1 (stereo not given) has what melting point?
### Response 161 to 165 °C

### Prompt # melting point lookup, item CCCCCCCCCCCCc1nnn(C(C(=O)O)C(C)C)n1 (stereo not given)
### Response 39 to 42 °C

### Prompt Which value of melting point has been reported for COC(=O)C1=C(O)c2c(c3cc(OC)ccc3n2C)S(=O)(=O)N1 in the records?
### Response 225 to 226 °C

* * *

Task for the reader: assign each of the following compounds its reported melting point.

### Prompt # melting point lookup, item Cc1ccc2nc(C3(c4ccc(S(N)(=O)=O)cc4)C=C(C(F)(F)F)NN3)sc2c1 (stereo unspecified)
### Response 257 to 258 °C

### Prompt What does the data say about its melting point? Entry: COc1cc2c(cc1-c1cccnc1)-c1c(-c3cccs3)c3c(n1CC2)C(=O)N(C(C)C)CCN(C(=O)C(C)C)C3
### Response 178 to 183 °C

### Prompt Entry C#CC1(OC(=O)c2ccccc2)C(COC(=O)c2ccc(Cl)cc2)OC(OC(=O)c2ccccc2)C1OC(=O)c1ccccc1 (stereo unspecified) : reported melting point = ?
### Response 66 to 68 °C

### Prompt Value lookup for melting point; key = CC(C)Oc1c(C(=O)Nc2nnn[nH]2)[nH]c(Br)c1Br
### Response 194 to 196 °C

### Prompt Which melting point value belongs to O=C(Nc1cccc2c(=O)cc(C(=O)O)oc12)c1ccc2c(c1)CC(COCc1ccccc1)O2 (stereo unspecified) ?
### Response 184 to 188 °C

### Prompt Which measured melting point value corresponds to COC(=O)C=Cc1ccc(OC)c(C)c1 ?
### Response 70 to 73 °C

### Prompt Given Cc1cc(CSCCC(=C(N)NCC(O)c2ccccc2)[N+](=O)[O-])sc1CN(C)C (stereo unspecified) , state its recorded melting point.
### Response 114 to 115 °C

### Prompt Need melting point, item C=CCN1C(=S)N(c2cccc(Oc3ccccc3)c2)C(=O)C1C (stereo unspecified)
### Response 88 °C

### Prompt // query melting point value for entry CCOC(=O)Cc1ccc(CNC(=O)C=Cc2ccc3[nH]cc(CC#N)c3c2)cc1
### Response 125 to 130 °C

### Prompt # lookup: melting point of O=C1CCc2cc3ccccc3n2C1
### Response 126 to 128 °C

### Prompt Recorded melting point for CC(C)C(C(N)=O)N(C)C(=O)OC(C)(C)C (stereo unspecified) , please?
### Response 181 to 183 °C

* * *

Readout name: melting point

### Prompt Which melting point value is on record for Cc1cc(C#N)cc(CBr)c1 ?
### Response 80 to 81 °C

### Prompt Item COC(=O)c1nn(-c2cccc(NC(C)=O)c2)c(=O)n(Cc2ccc(Cl)cc2)c1=O has what recorded melting point?
### Response 193 °C

### Prompt What measured melting point goes with CCOC(=O)c1cc(C(=O)c2cccc(S(=O)(=O)F)c2)sc1N=Nc1ccc(O)c(N)n1 ?
### Response 170 to 172 °C

### Prompt Quick one: melting point for COC(=O)c1cc(C=O)cnc1C(=O)OC ?
### Response 75 to 77 °C

### Prompt Fill blank: measured melting point of the compound O=C(Nc1ccc2[nH]ccc2c1)c1cc2cc(F)ccc2n1Cc1cccc(F)c1 is ____.
### Response 158 to 163 °C

### Prompt Record request: melting point value, item CCCCNC(=O)c1nc2cnn(CC)c2nc1C
### Response 64 to 65 °C

### Prompt I am curious: what melting point value has been reported for CCN(CC)[C@@H]1CCC[C@H]1Nc1ccnc2cc(Cl)ccc12 (racemic) ?
### Response 186 to 190 °C

### Prompt Fill in: melting point of O=C(NCCN1CCC(Nc2nc3ccccc3n2Cc2ccc(F)cc2)CC1)c1cc2ccccc2[nH]1 is ___
### Response 232 °C

### Prompt Name the reported melting point value associated with the compound Nc1nc(-c2ccccc2)c(-c2ccnc(Nc3ccccc3)n2)s1
### Response 196 to 197 °C

### Prompt Record request: melting point value, item O=[N+]([O-])c1cccc(-c2ccnc3c(-c4ccsc4)cnn23)c1
### Response 148 to 150 °C

Reference for the values: a melting point compilation (Tetko et al.; mined from patent text by program, amines drawn as free bases though some values may be those of a salt)
